Tested on: BV-173
Test: cell viability (% survival relative to DMSO control, bortezomib = 0%); higher = less cytotoxic
Conditions: 10 nM; 72 h
PROPERTY_LABEL: cell viability

* CC(C)c1nc(CN(C)C(=O)N[C@H](C(=O)N[C@@H](Cc2ccccc2)C[C@H](O)[C@H](Cc2ccccc2)NC(=O)OCc2cncs2)C(C)C)cs1 | 89.8%
* O=C(O)C1=CC(=C(c2ccc(O)c(C(=O)O)c2)c2ccc(O)c(C(=O)O)c2)C=CC1=O | 104%
* COc1ccc(-c2ccccc2)cc1NS(=O)(=O)c1cc(Cl)cc(Cl)c1O | 90%
* Cl.NC(CCC(=O)Nc1ccc([N+](=O)[O-])cc1)C(=O)O (configuration not stated) | 106%
* Cc1ccccc1C(C(=O)NC1CCCCC1)N(C(=O)Cn1ccnc1C)c1cccc(F)c1 (configuration not stated) | 103%

Proceed to the following item.
## Input Need cell viability of "Oc1ccc(Nc2nc(-c3ccc(Cl)cc3)cs2)cc1" , thanks.
## Output 98.3%

----------
System: Mono-Mac-6
Assay: cell viability (% survival relative to DMSO control, bortezomib = 0%); higher = less cytotoxic
Conditions: 100 nM; 72 h
PROPERTY_LABEL: cell viability (%)
Quick note: give the figure in %, leave out the unit.

• NC(=O)c1cccc(-c2cccc(OC(=O)NC3CCCCC3)c2)c1 [URB-597] = 97.2

Proceed to the following item.
## Input Need cell viability of "C[C@H](NC(=O)c1sccc1OCc1ccc(Cl)cc1)c1ccccc1" , thanks.
## Output 102

----------
We begin with a simple list: items and their reported cell viability.
System: myeloid leukemia patient primary cells Pat.6
Assay: cell viability (% survival relative to DMSO control); higher = less cytotoxic
Conditions: 10 nM; 72 h
Quick note: give the figure in %, leave out the unit.

• CCC(=O)N1CCN(c2ccc(-n3c(=O)ccc4cnc5ccc(-c6cnc7ccccc7c6)cc5c43)cc2C(F)(F)F)CC1 = 89.3

## Input Need cell viability of "O=C(C1CC1)N1CC[C@@H](C=C2NNC(=O)N2c2ccc(-c3ccc4occc4c3)cc2)C1" , thanks.
## Output 97.7

## Input Need cell viability of "COc1cc(/C=C/C(=O)N2CCC=CC2=O)cc(OC)c1OC" , thanks.
## Output 96.6

## Input Need cell viability of "C=C(C)[C@H]1Cc2c(ccc3c2O[C@@H]2COc4cc(OC)c(OC)cc4[C@@H]2C3=O)O1" , thanks.
## Output 75.4

----------
We begin with a simple list: items and their reported cell viability.
Test system: MOLM-13
Test: cell viability (% survival relative to DMSO control, bortezomib = 0%); higher = less cytotoxic
Details: 1000 nM; 72 h
Quick note: give the figure in %, leave out the unit.

## Input Need cell viability of CCCCCCCCCCCC(=O)c1c(O)c(C(=O)CCCCCCCCCCC)c(O)c(C2CC(c3ccc(O)cc3)Oc3cc(O)ccc32)c1O (stereo not drawn) , thanks.
## Output 99.1

## Input Need cell viability of O=C(O)CCCCC(CCSCc1ccccc1)SCc1ccccc1 (stereo not drawn) , thanks.
## Output 75.5

## Input Need cell viability of "COC(=O)[C@]12CCC(C)(C)C[C@H]1[C@H]1C(=O)C=C3[C@@]4(C)C=C(C#N)C(=O)C(C)(C)[C@@H]4CC[C@@]3(C)[C@]1(C)CC2" , thanks.
## Output 91.9

## Input Need cell viability of "COc1ccc(C(=O)Nc2c(Cl)cncc2Cl)cc1OC1CCCC1" , thanks.
## Output 103

## Input Need cell viability of "C[C@](N)(Cc1ccc(O)cc1)C(=O)O" , thanks.
## Output 94.6

----------
System: Mono-Mac-6
Conditions: 72 h
We begin with a simple list: items and their reported IC50 (cell viability).

As a guide, the following entries are already answered.
- C[C@](N)(Cc1ccc(O)cc1)C(=O)O: > 10 µM
- N#CC(C#N)=NNc1ccc(OC(F)(F)F)cc1: 2.38 µM
- O=C(O)c1cc(Cl)cc(Cl)c1O: > 10 µM
- O=C1c2cc([N+](=O)[O-])ccc2-n2c1nc1ccccc1c2=O: 1.78 µM
- CC(C)c1nc(CN(C)C(=O)N[C@H](C(=O)N[C@@H](Cc2ccccc2)C[C@H](O)[C@H](Cc2ccccc2)NC(=O)OCc2cncs2)C(C)C)cs1: > 10 µM

## Input Need IC50 (cell viability) of CCCCC/C=C\C/C=C\C/C=C\C/C=C\CCCCN1C(=O)C=CC1=O [N-Arachidonylmaleimide] , thanks.
## Output > 10 µM

## Input Need IC50 (cell viability) of N/C(=N\CCCC(N)C(=O)O)N[N+](=O)[O-] (stereo not given) , thanks.
## Output > 10 µM

## Input Need IC50 (cell viability) of "O=C(O)C(=O)CBr" , thanks.
## Output > 10 µM

----------
System: HL-60
Assay: cell viability (% survival relative to DMSO control); higher = less cytotoxic
Details: 0.01 µM; 72 h; co-treatment: pictilisib 100 nM
We begin with a simple list: items and their reported cell viability.
Quick note: give the figure in %, leave out the unit.

As a guide, the following entries are already answered.
• CC(C)c1cc2c(c(O)c1O)[C@@]1(C(=O)O)CCCC(C)(C)[C@@H]1CC2 [Carnosic acid] = 102
• O=C(O)c1cc(Cl)cc(Cl)c1O [3,5-Dichlorosalicylic Acid] = 93.1
• COc1ccc(-c2ccccc2)cc1NS(=O)(=O)c1cc(Cl)cc(Cl)c1O = 104

## Input API: value(readout= cell viability, system= HL-60, query= COc1cc(/C=C/C(=O)N2CCC=CC2=O)cc(OC)c1OC [Piperlongumine] )
## Output 94.8

## Input API: value(readout= cell viability, system= HL-60, query= "CN(C)C(=O)[C@H](O)[C@H](Cc1ccccc1)NC(=O)c1cc2cc(Cl)ccc2[nH]1" )
## Output 107

## Input API: value(readout= cell viability, system= HL-60, query= C[C@](N)(Cc1ccc(O)cc1)C(=O)O [Metirosine] )
## Output 105

## Input API: value(readout= cell viability, system= HL-60, query= CCCCCCCCCCC[C@@H](C[C@@H]1OC(=O)[C@H]1CCCCCC)OC(=O)[C@H](CC(C)C)NC=O [Orlistat] )
## Output 109

## Input API: value(readout= cell viability, system= HL-60, query= COC(=O)[C@]12CCC(C)(C)C[C@H]1[C@H]1C(=O)C=C3[C@@]4(C)C=C(C#N)C(=O)C(C)(C)[C@@H]4CC[C@@]3(C)[C@]1(C)CC2 [Bardoxolone methyl] )
## Output 78.7

## Input API: value(readout= cell viability, system= HL-60, query= CC(C)(O)CNc1nc(Nc2ccnc(C(F)(F)F)c2)nc(-c2cccc(C(F)(F)F)n2)n1 [AG-221] )
## Output 104

## Input API: value(readout= cell viability, system= HL-60, query= Cc1cn([C@H]2C[C@H](O)[C@@H](COP(=O)(O)OP(=O)(O)O)O2)c(=O)[nH]c1=O [Thymidine diphosphate] )
## Output 94

----------
Tested on: myeloid leukemia patient primary cells Pat.8
Test: cell viability (% survival relative to DMSO control); higher = less cytotoxic
Details: 10000 nM; 72 h
PROPERTY_LABEL: cell viability

As a guide, the following entries are already answered.
- O=C(C1CC1)N1CC[C@@H](C=C2NNC(=O)N2c2ccc(-c3ccc4occc4c3)cc2)C1: 73.2%
- Oc1ccc(Nc2nc(-c3ccc(Cl)cc3)cs2)cc1 [SKI II]: 42.6%
- O=C1O/C(=C/Br)CCC1c1cccc2ccccc12 (centres undefined) [Bromoenol Lactone]: 30%

Proceed to the following item.
## Input Need cell viability of O=C(O)Cn1nnc(-c2cc(N3CCC(Oc4cc(F)ccc4Br)CC3)no2)n1 [MK-8245] , thanks.
## Output > 100%

----------
Test system: myeloid leukemia patient primary cells Pat.9
Assay: cell viability (% survival relative to DMSO control); higher = less cytotoxic
Conditions: 100 nM; 72 h
Decide using cell viability alone. Strictly below 30%: 1. Equal to or above 30%: -1.

• COC(=O)[C@]12CCC(C)(C)C[C@H]1[C@H]1C(=O)C=C3[C@@]4(C)C=C(C#N)C(=O)C(C)(C)[C@@H]4CC[C@@]3(C)[C@]1(C)CC2 [Bardoxolone methyl] = 1
• C=C(C=NNC(=N)N)NNC(=N)N [Mitoguazone] = 1
• CC[C@@]1(O)C(=O)OCc2c1cc1n(c2=O)Cc2cc3c(CN(C)C)c(O)ccc3nc2-1 [Topotecan] = -1

## Input Does this molecule meet the criterion cell viability < 30%? Oc1ccc(Nc2nc(-c3ccc(Cl)cc3)cs2)cc1 [SKI II]
## Output -1

## Input Does this molecule meet the criterion cell viability < 30%? Nc1nc(Cl)nc2c1ncn2[C@H]1C[C@H](O)[C@@H](CO)O1 [Cladribine]
## Output 1

## Input Does this molecule meet the criterion cell viability < 30%? O=C(O)Cn1nnc(-c2cc(N3CCC(Oc4cc(F)ccc4Br)CC3)no2)n1 [MK-8245]
## Output -1
